Molecular target: sPLA2-X protein (Homo sapiens, UniProt O15496)
Sequence (O15496 43-165): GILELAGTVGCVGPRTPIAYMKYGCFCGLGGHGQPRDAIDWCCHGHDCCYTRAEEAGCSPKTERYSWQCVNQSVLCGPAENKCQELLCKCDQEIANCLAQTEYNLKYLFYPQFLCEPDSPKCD
Test: sPLA2-X enzyme inhibition assay (thio-PC substrate, DTNB detection, absorbance 410 nm)
Assay type: biochemical
Parameters: made in house; host or cells: E. coli
Conditions: class symbols; read-out: sPLA2 Type X Inhibition (IC50; nM)
MEASUREMENT KIND: IC50

Sample records with IC50:
Task item: Look up IC50 for this compound: NC(=O)c1cc2ccc(OC(F)(F)F)cc2n1-c1cccc(N2CC(C(=O)O)C2)n1 [Compound 52]
Reply: 50 to 200 nM

Task item: State the recorded IC50 for this entry: CC(=O)NCc1cccc(-n2c(C(N)=O)cc3ccc(OC(F)(F)F)cc32)n1 [Compound 32]
Reply: > 200 nM

Task item: Which IC50 reading was recorded for the compound NC(=O)c1cc2ccc(OC(F)(F)F)cc2n1-c1ccc2c(c1)OCC2CC(=O)O (stereo not shown) [Compound 9] ?
Reply: > 200 nM

Task item: Give the measured IC50 of NC(=O)c1cc2ccc(OC(F)(F)F)cc2n1-c1cccc(C2CC2C(=O)O)n1 (racemic) [Compound 28c] .
Reply: 20 to 50 nM

Task item: Value lookup for IC50; key = CC(C)(C)OC(=O)NCc1cccc(-n2c(C(N)=O)cc3ccc(OC(F)(F)F)cc32)n1 [Compound 26]
Reply: > 200 nM

More entries:
Task item: What measured IC50 goes with COc1cnc2cc(C(N)=O)n(-c3cccc(C4CC4C(=O)O)n3)c2c1 (single isomer, unassigned) [Compound 51] ?
Reply: > 200 nM

Task item: Look up IC50: NC(=O)c1cc2ccccc2n1-c1cccc(CCC(=O)O)c1 [Compound 21]
Reply: > 200 nM

----------
Known IC50 of a selection of compounds
Target: recombinant human sPLA2-IIA enzyme (Homo sapiens, UniProt P14555)
Construct: made in house; host or cells: E. coli
Sequence (P14555 21-144): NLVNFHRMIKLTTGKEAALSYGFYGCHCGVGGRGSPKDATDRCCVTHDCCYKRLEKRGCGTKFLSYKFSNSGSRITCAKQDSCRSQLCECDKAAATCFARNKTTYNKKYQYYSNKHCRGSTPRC
Assay: sPLA2-IIA enzyme inhibition assay (thio-PC substrate, DTNB detection, absorbance 410 nm)
Assay type: biochemical
Conditions: class symbols; read-out: sPLA2 Type IIa Inhibition (IC50; nM)
Where a name gives a salt, the structure may show the parent alone.

Reference set (4 entries):
Task item: Which value of IC50 has been reported for NC(=O)c1cc2ccc(OC(F)(F)F)cc2n1-c1cccc(C[C@H](N)C(=O)O)c1 [Compound 24, TFA salt] in the records?
Reply: > 1000 nM

Task item: Which IC50 reading was recorded for the compound CC(C)(Cc1cccc(-n2c(C(N)=O)cc3ccc(OC(F)(F)F)cc32)n1)C(=O)O ?
Reply: > 1000 nM

Task item: Would you mind telling me what IC50 value was observed for NC(=O)c1sc2ccc(OC(F)(F)F)cc2c1-c1cccc(CCC(=O)O)c1 ?
Reply: 200 to 500 nM

Task item: If you can, please state the reported IC50 value of NC(=O)c1cc2ccc(OC(F)(F)F)cc2n1-c1cncc(CCC(=O)O)c1 .
Reply: > 1000 nM

Continuing:
Task item: Endpoint output: IC50 of NC(=O)c1sc2ccccc2c1-c1cccc(CCC(=O)O)c1 . Value?
Reply: > 1000 nM

Task item: Sample CC(C)(C)OC(=O)NCc1cccc(-n2c(C(N)=O)cc3ccc(OC(F)(F)F)cc32)n1 — what was its IC50?
Reply: > 1000 nM

Task item: Value lookup for IC50; key = NC(=O)c1cc2ccc(OC(F)(F)F)cc2n1-c1cccc(SCC(=O)O)n1
Reply: > 1000 nM

Task item: Field request: IC50 | item: NC(=O)c1cc2ccc(OC(F)(F)F)cc2n1-c1cccc(CCC(=O)O)n1
Reply: > 1000 nM

Task item: Please look up its IC50: COc1cnc2cc(C(N)=O)n(-c3cccc(C4CC4C(=O)O)n3)c2c1 (single isomer, unassigned)
Reply: > 1000 nM

Task item: Which IC50 value belongs to NC(=O)c1cc2ccc(OC(F)(F)F)cc2n1-c1ccc2occ(CC(=O)O)c2c1 ?
Reply: > 1000 nM

Task item: Record request: IC50 value, item CS(=O)(=O)NCc1cccc(-n2c(C(N)=O)cc3ccc(OC(F)(F)F)cc32)n1
Reply: > 1000 nM

Task item: Need IC50, item CC(C)(CC(=O)O)c1cccc(-n2c(C(N)=O)cc3ccc(OC(F)(F)F)cc32)c1
Reply: > 1000 nM

Task item: Given NC(=O)c1oc2ccccc2c1-c1cccc(CCC(=O)O)c1 , state its recorded IC50.
Reply: > 1000 nM

Task item: Need IC50 of NC(=O)c1oc2ccc(OC(F)(F)F)cc2c1-c1cccc(CCC(=O)O)c1 , thanks.
Reply: > 1000 nM

Task item: // returns reported IC50 for input C[C@]1(c2cccc(-n3c(C(N)=O)cc4ccc(OC(F)(F)F)cc43)c2)C[C@H]1C(=O)O (relative stereo) [Compound 38a]
Reply: 200 to 500 nM

Task item: For the compound shown here, CC(C)(Cc1cccc(-n2c(C(N)=O)cc3ccc(OC(F)(F)F)cc32)c1)C(=O)O , give the reported IC50.
Reply: 500 to 1000 nM
